- System: A2780 (cisplatin-sensitive ovarian cancer cells)
- procedureText: Cell viability assay
- Assay type: cell-based, human
- appliedConditions: read-out: IC50 A2780; 96 h of incubation
parameter: pIC50
# pIC50: negative log10 of molar concentration; output just the value

Query: Name the recorded pIC50 for `C[N+]12CN3CN(C1)C[PH]([Pd]([I])([c]1ccc([N+](=O)[O-])cc1)[PH]14CN5CN(C[N+](C)(C5)C1)C4)(C3)C2.F[P-](F)(F)(F)(F)F.F[P-](F)(F)(F)(F)F` .
Result: 5.51

* * *

- System: U87 (glioblastoma)
- procedureText: Cell viability assay
- Type: cell-based, human
- appliedConditions: read-out: IC50 U87; 96 h of incubation
parameter: pIC50
# pIC50: negative log10 of molar concentration; output just the value

>>> assayvalue("N.N.[Cl][Pt][Cl] [Cisplatin, cisplatin, reference compound]")
4.98

Turning now to a further compound:
Query: Name the recorded pIC50 for `C[N+]12CN3CN(C1)C[PH]([Pd]([I])([c]1ccc([N+](=O)[O-])cc1)[PH]14CN5CN(C[N+](C)(C5)C1)C4)(C3)C2.F[P-](F)(F)(F)(F)F.F[P-](F)(F)(F)(F)F` .
Result: 4.05
